# TESTED_ON: T1, GLP-1R L142A (Homo sapiens)
# T1 chain: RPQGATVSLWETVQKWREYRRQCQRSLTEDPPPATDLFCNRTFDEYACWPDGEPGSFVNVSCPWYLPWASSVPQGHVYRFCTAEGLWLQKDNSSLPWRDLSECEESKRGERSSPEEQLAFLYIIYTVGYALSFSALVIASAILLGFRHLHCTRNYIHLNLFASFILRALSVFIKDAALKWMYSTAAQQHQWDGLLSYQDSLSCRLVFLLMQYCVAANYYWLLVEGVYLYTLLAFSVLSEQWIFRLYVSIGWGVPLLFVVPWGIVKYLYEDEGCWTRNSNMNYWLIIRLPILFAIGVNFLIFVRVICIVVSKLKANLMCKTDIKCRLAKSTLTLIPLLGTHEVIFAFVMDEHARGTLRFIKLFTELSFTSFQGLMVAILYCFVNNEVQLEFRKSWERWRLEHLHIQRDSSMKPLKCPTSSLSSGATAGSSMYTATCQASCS
MEASUREMENT_LABEL: IC50

>>> print(df.to_string())
                                     binder  measurement_label  reading
0  HSQGTFTSDYSKYLDSRRAQDFVQWLMNTKRNRNNIA [oxyntomodulin]               IC50  81.3 nM
